# subject.of.test: huCD28 (human, UniProt P10747 19-152, limits assumed)
# protocol.text: SPR, OAA format
measurement.name: kon (M⁻¹ s⁻¹)

{"columns": ["binder", "observed"],
 "data": [
  ["v37879 (antibody, V domains shown, OAA format as v34891; also called huTN228 V1114A (VL) OAA) VH: QVQLQESGPGLVKPSETLSLTCAVSGFSLTSYGVHWIRQPPGKGLEWLGVIWPGGGTNFNSALMSRLTISEDTSKNQVSLKLSSVTAADTAVYYCARDRAYGNYLYAMDYWGQGTLVTVSS VL: DIQMTQSPSSLSASVGDRVTITCRASESVEYYVTSLMQWYQQKPGKAPKLLIYAASNVDSGVPSRFSGSGSGTDFTLTISSLQPEDIATYYCQQSRKAPFTFGGGTKVEIK", 50300]
]}
